Values from patent US10358434B2

# protocol.text: In vivo kinetics experiment (radioactivity distribution)
# Parameters: species or system Wistar male rat
# conditions: rat, caudal vein, 10 min after administration
property.name: Radioactivity distribution Spleen (% ID/g)
Give the quantity in % ID/g, number only.

Worked examples follow.
                                   compound  data_value
0  [123I]c1ccc2nc(-c3cncc(Cn4ccnn4)c3)n(C3CC3)c2c1 [[^123I] 603]        5.59
1  Fc1cc2nc(-c3cncc(Cn4ccnc4)c3)n(CC[18F])c2cc1Br [[^18F] 200]        1.49

*Q* Any idea what Radioactivity distribution Spleen was measured for Fc1cc2nc(-c3cncc(Cn4ccnc4)c3)n(CCC[18F])c2cc1Cl [[^18F] 500] ?
*A* 0.93

====

Items are presented alongside their recorded Adrenal gland/muscle ratio of radioactivity accumulation.
# protocol.text: In vivo kinetics experiment (radioactivity distribution)
# Parameters: species or system Wistar male rat
# conditions: rat, caudal vein, 30 min after administration
The response must contain the number and no unit.

Recorded Adrenal gland/muscle ratio of radioactivity accumulation, per entry:
>>> print(df.to_string())
                                   molecule  data_value
0  Fc1cc2nc(-c3cncc(Cn4ccnc4)c3)n(CC[18F])c2cc1Cl [[^18F] 100]      179.35
1  Fc1cc2nc(-c3cncc(Cn4ccnc4)c3)n(CC[18F])c2cc1Br [[^18F] 200]      158.65
2  [123I]c1ccc2nc(-c3cncc(Cn4ccnc4)c3)n(C3CC3)c2c1 [[^123I] 602]      110.91

Consider the additional molecule presented here.
*Q* I have this molecule here, [123I]c1ccc2nc(-c3cncc(Cn4ccnn4)c3)n(C3CC3)c2c1 [[^123I] 603] , and I need its recorded Adrenal gland/muscle ratio of radioactivity accumulation.
*A* 98.15

====

Some compounds, each annotated with its measured Radioactivity distribution Remaining whole body.
# protocol.text: In vivo kinetics experiment (radioactivity distribution)
# Parameters: species or system Wistar male rat
# conditions: 30 min after administration; rat i.v.; mean ± SD
Note: unit % ID/g is implicit; provide only the numeric part.

A selection of reference data follows.
>>> df
                                   compound  unit_abbrev  data_value
0  CCn1c(-c2cncc(Cn3ccnc3)c2)nc2ccc([123I])cc21 [[^123I] 608]       % ID/g        0.30
1  Fc1cc2nc(-c3cncc(Cn4ccnc4)c3)n(Cc3ccc([123I])cc3)c2cc1Cl [[^123I] 605]       % ID/g        0.21
2  COc1cc([123I])cc2c1nc(-c1cncc(Cn3ccnc3)c1)n2C1CC1 [[^123I] 609]       % ID/g        0.14
3  Cn1c(-c2cncc(Cn3ccnc3)c2)nc2ccc([123I])cc21 [[^123I] 607]       % ID/g        0.27
4  COC(=O)c1cncn1[C@H](C)c1ccc(I)cc1 [[^123I] IMTO, (R)-[^123I]iodometomidate, reference compound]       % ID/g        0.31

*Q* Which value of Radioactivity distribution Remaining whole body has been reported for FCCn1c(-c2cncc(Cn3cncc3[123I])c2)nc2cc(F)c(Cl)cc21 [[^123I] 610] in the records?
*A* 0.31

*Q* What about FCCn1c(-c2cncc(Cn3ccnc3)c2)nc2ccc([123I])cc21 [[^123I] 604] ?
*A* 0.27
